src = ChEMBL document CHEMBL1144565

Target: Tyrosine-protein kinase JAK2 (Homo sapiens, UniProt O60674)
Sequence (O60674 whole entry): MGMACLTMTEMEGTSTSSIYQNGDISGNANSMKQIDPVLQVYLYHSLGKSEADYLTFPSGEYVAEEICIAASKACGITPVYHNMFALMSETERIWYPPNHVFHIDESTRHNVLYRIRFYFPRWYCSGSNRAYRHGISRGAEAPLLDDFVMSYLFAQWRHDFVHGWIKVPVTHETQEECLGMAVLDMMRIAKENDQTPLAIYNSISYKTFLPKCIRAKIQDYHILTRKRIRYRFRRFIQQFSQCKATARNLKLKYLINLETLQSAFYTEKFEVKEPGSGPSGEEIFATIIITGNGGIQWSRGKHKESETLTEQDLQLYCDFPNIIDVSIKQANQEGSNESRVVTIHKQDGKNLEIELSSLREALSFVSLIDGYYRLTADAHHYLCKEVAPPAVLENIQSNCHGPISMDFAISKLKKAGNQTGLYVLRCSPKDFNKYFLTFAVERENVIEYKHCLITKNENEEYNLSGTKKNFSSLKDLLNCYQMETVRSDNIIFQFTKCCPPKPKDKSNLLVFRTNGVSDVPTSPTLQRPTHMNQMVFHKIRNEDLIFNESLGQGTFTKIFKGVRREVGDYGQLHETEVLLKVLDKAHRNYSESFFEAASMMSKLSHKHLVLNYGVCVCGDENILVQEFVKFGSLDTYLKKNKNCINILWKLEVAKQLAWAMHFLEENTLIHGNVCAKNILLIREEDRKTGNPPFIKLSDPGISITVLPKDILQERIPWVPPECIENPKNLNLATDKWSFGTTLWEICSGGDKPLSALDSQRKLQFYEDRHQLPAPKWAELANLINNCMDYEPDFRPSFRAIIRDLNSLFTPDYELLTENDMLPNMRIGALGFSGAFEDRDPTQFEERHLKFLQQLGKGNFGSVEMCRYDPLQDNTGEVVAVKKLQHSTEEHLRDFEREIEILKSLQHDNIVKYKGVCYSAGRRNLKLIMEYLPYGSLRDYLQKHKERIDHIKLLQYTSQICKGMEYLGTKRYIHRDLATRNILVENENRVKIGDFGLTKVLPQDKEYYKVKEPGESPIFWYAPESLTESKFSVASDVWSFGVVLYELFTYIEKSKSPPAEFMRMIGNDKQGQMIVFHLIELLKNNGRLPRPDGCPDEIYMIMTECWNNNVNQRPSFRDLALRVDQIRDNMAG
MEASURED PROPERTY: IC50

*Q* Give the measured IC50 of C/C(O)=C(\C#N)C(=O)Nc1cc(Br)ccc1Br .
*A* > 500 µM

====

Target: UniProt P07947
MEASURED PROPERTY: IC50

*Q* Give the measured IC50 of C/C(O)=C(\C#N)C(=O)Nc1cc(Br)ccc1Br .
*A* > 500 µM

====

Biological target: Mast/stem cell growth factor receptor Kit (Homo sapiens, UniProt P10721)
MEASURED PROPERTY: IC50

*Q* Give the measured IC50 of C/C(O)=C(\C#N)C(=O)Nc1cc(Br)ccc1Br .
*A* > 500 µM

====

Biological target: Serine/threonine-protein kinase PLK3 (Homo sapiens)
Sequence (Q9H4B4 whole entry): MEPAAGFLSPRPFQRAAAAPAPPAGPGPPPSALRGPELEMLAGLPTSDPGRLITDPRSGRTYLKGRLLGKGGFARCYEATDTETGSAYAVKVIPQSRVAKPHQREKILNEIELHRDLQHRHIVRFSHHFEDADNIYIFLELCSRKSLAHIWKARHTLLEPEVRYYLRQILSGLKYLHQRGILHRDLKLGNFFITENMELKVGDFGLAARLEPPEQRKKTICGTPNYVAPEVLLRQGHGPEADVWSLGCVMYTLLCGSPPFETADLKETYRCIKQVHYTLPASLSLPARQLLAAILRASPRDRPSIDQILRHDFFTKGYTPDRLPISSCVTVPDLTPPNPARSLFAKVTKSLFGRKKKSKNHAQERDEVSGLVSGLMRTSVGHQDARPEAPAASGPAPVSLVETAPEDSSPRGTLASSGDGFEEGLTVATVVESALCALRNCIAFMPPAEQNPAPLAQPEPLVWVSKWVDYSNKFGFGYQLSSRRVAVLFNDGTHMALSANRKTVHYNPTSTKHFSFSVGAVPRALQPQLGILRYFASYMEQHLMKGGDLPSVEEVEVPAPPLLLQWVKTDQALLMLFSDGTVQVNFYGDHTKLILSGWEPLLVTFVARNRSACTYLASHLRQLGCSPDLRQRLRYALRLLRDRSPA
Assay: Inhibition of human PLK3 in presence of 50 uM ATP
MEASURED PROPERTY: IC50 (µM)
Provide only the numeric value, understood in µM.

*Q* Give the measured IC50 of C/C(O)=C(\C#N)C(=O)Nc1cc(Br)ccc1Br .
*A* 79

====

Molecular target: Serine/threonine-protein kinase Chk1 (Homo sapiens, UniProt O14757)
Sequence (O14757 whole entry): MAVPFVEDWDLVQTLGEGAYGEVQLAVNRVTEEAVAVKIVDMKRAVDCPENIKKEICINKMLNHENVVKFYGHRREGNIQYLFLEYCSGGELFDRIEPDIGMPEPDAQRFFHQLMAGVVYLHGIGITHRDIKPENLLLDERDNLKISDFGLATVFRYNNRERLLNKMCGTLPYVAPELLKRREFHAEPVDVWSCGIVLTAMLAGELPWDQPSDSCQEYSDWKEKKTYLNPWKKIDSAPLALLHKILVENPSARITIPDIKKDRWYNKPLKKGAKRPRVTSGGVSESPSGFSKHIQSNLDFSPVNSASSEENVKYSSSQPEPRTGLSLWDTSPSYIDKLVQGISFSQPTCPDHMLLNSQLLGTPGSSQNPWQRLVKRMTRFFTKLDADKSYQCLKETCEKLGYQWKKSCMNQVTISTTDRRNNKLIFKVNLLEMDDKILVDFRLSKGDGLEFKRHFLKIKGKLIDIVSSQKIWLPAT
MEASURED PROPERTY: IC50

*Q* Give the measured IC50 of C/C(O)=C(\C#N)C(=O)Nc1cc(Br)ccc1Br .
*A* > 500 µM

====

Biological target: Serine/threonine-protein kinase PLK3 (Homo sapiens)
Experiment: Inhibition of human PLK3 in presence of 100 uM ATP
MEASURED PROPERTY: IC50 (µM)
Provide only the numeric value, understood in µM.

*Q* Give the measured IC50 of C/C(O)=C(\C#N)C(=O)Nc1cc(Br)ccc1Br .
*A* 125

====

Biological target: Cyclin-dependent kinase 2 (Homo sapiens, UniProt P24941)
MEASURED PROPERTY: IC50

*Q* Give the measured IC50 of C/C(O)=C(\C#N)C(=O)Nc1cc(Br)ccc1Br .
*A* > 500 µM

====

Biological target: Platelet-derived growth factor receptor (Homo sapiens, UniProt P09619+P16234)
Test: Inhibition of PDGFR
MEASURED PROPERTY: IC50

*Q* Give the measured IC50 of C/C(O)=C(\C#N)C(=O)Nc1cc(Br)ccc1Br .
*A* > 500 µM

====

Molecular target: Serine/threonine-protein kinase PLK3 (Homo sapiens)
Experiment: Inhibition of human PLK3 in presence of 200 uM ATP
MEASURED PROPERTY: IC50 (µM)
Provide only the numeric value, understood in µM.

*Q* Give the measured IC50 of C/C(O)=C(\C#N)C(=O)Nc1cc(Br)ccc1Br .
*A* 262

====

Target: Serine/threonine-protein kinase PLK1 (Xenopus laevis)
Sequence (P70032 whole entry): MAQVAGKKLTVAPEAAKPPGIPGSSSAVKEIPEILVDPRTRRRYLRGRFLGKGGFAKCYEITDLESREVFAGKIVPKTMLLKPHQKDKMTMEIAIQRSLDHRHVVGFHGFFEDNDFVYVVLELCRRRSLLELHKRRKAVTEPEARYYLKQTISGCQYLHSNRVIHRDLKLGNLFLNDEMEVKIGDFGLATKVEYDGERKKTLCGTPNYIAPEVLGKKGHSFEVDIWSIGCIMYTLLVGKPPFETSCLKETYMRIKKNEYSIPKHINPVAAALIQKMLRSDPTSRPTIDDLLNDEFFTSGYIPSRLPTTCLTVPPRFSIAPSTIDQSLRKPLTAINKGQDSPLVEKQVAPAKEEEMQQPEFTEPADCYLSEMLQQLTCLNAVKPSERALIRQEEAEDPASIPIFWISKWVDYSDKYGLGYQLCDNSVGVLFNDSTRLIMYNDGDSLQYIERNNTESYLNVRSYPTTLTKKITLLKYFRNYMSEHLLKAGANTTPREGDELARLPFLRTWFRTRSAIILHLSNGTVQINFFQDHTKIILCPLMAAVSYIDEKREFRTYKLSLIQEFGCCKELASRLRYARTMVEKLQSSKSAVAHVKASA
Assay: Inhibition of xenopus recombinant Plx1 expressed in Sf21 cells by measuring autophosphorylation by 15-mins kinase assay
Format: functional
MEASURED PROPERTY: pIC50
// returns pIC50 (minus log10 of molar concentration), number only

*Q* Give the measured pIC50 of C/C(O)=C(\C#N)C(=O)Nc1cc(Br)ccc1Br .
*A* 4.99

====

MEASURED PROPERTY: IC50

*Q* Query IC50 on Insulin-like growth factor 1 receptor (Homo sapiens, UniProt P08069) for C/C(O)=C(\C#N)C(=O)Nc1cc(Br)ccc1Br
*A* > 500 µM

====

Target: Cytoplasmic tyrosine-protein kinase BMX (Homo sapiens)
Sequence (P51813 whole entry): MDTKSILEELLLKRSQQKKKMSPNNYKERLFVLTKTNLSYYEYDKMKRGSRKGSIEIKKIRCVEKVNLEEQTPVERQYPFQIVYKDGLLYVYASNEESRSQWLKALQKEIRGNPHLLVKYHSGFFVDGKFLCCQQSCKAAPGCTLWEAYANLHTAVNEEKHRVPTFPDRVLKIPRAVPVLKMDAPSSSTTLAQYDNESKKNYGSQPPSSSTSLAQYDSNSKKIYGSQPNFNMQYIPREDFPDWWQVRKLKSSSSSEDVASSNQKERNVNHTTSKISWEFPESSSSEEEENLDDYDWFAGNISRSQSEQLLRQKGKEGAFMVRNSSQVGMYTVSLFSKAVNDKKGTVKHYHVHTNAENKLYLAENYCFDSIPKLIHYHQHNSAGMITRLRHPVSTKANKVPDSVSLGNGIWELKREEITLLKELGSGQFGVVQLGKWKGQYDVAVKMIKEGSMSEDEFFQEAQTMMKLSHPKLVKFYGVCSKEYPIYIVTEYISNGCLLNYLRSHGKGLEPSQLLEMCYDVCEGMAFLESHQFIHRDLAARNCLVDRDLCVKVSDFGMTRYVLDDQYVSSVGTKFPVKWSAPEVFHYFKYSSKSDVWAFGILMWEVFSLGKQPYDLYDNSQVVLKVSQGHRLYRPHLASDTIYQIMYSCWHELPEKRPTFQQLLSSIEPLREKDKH
MEASURED PROPERTY: IC50

*Q* Give the measured IC50 of C/C(O)=C(\C#N)C(=O)Nc1cc(Br)ccc1Br .
*A* 281 µM

====

Biological target: Mitogen-activated protein kinase 1 (Homo sapiens, UniProt P28482)
Sequence (P28482 whole entry): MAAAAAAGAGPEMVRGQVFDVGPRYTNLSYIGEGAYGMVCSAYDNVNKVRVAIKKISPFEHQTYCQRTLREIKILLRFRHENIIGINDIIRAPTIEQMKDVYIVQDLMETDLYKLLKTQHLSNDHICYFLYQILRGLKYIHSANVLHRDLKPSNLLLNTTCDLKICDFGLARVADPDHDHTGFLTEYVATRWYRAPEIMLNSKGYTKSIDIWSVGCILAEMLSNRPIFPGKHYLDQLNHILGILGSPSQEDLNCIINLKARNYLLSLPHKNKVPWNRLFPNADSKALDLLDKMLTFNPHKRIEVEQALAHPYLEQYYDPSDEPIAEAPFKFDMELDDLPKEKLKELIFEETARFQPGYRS
Assay: Inhibition of MAPK1
pIC50: −log10 of the molar value.
MEASURED PROPERTY: pIC50

*Q* Give the measured pIC50 of C/C(O)=C(\C#N)C(=O)Nc1cc(Br)ccc1Br .
*A* < 3.30

====

MEASURED PROPERTY: IC50 (µM)
Provide only the numeric value, understood in µM.

*Q* Query IC50 on Hepatocyte growth factor receptor (Homo sapiens, UniProt P08581) for C/C(O)=C(\C#N)C(=O)Nc1cc(Br)ccc1Br
Sequence (P08581 whole entry): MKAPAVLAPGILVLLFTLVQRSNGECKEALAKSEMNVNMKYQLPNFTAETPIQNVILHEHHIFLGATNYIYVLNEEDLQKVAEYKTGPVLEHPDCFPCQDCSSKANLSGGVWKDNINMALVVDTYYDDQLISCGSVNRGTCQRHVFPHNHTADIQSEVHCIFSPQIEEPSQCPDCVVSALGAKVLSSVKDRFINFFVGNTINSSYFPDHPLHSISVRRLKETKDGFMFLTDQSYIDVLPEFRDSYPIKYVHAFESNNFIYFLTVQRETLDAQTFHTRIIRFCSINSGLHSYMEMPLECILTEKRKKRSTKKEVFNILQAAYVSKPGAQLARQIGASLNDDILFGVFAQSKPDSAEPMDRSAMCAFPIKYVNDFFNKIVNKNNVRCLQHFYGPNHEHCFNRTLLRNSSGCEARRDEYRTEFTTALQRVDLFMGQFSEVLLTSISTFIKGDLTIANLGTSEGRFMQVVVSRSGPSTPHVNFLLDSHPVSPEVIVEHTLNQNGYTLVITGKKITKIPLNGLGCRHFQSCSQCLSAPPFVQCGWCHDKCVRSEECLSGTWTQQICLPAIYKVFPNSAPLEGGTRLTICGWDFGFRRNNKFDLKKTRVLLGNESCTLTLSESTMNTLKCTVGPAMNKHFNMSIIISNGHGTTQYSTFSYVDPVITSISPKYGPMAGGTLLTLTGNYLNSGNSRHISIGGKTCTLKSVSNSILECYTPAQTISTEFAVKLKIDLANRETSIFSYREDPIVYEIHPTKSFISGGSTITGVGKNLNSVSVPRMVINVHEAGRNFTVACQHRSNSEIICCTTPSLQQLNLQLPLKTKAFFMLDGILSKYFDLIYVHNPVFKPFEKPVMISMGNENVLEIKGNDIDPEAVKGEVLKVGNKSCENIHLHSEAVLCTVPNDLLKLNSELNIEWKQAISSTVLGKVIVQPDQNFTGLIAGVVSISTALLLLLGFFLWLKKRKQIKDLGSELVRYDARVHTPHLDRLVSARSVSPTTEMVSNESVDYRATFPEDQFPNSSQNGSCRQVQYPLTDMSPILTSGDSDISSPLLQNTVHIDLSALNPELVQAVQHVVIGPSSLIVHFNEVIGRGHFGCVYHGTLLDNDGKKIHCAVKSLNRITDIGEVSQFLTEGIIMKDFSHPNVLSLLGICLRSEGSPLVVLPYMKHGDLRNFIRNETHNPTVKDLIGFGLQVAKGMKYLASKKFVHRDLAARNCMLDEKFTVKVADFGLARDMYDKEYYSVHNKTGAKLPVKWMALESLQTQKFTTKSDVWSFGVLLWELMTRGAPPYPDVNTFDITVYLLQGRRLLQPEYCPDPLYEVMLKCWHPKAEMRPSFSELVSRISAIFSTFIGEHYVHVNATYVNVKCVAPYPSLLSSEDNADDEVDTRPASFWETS
*A* 215

====

Molecular target: Cyclin-dependent kinase 1 (Homo sapiens, UniProt P06493)
Sequence (P06493 whole entry): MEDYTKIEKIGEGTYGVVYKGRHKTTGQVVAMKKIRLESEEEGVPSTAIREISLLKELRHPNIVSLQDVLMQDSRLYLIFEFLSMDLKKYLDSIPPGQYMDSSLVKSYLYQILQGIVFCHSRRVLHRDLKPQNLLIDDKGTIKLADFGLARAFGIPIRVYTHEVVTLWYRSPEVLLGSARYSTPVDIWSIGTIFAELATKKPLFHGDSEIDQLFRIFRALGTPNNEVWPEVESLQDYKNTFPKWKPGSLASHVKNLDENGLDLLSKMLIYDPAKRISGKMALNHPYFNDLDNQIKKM
MEASURED PROPERTY: IC50

*Q* Give the measured IC50 of C/C(O)=C(\C#N)C(=O)Nc1cc(Br)ccc1Br .
*A* > 500 µM

====

Molecular target: Tyrosine-protein kinase Fyn (Homo sapiens, UniProt P06241)
Sequence (P06241 whole entry): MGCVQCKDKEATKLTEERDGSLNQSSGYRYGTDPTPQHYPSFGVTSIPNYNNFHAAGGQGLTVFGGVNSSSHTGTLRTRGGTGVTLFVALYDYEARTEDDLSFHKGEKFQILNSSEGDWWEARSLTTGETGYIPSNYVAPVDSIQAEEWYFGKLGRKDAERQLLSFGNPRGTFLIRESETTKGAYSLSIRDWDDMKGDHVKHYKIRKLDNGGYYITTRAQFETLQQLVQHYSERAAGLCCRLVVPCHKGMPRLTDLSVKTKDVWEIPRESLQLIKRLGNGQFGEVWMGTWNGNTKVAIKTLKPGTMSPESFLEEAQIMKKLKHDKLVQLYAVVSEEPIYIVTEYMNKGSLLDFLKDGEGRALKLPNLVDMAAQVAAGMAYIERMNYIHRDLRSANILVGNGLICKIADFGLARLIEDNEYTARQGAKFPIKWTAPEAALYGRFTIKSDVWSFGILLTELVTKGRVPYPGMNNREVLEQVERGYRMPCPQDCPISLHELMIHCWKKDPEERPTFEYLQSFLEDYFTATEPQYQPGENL
Assay: Inhibition of FYN kinase
MEASURED PROPERTY: IC50 (µM)
Provide only the numeric value, understood in µM.

*Q* Give the measured IC50 of C/C(O)=C(\C#N)C(=O)Nc1cc(Br)ccc1Br .
*A* 240
